These data points were gathered from patent EP0386611A2.

Molecular target: HIV protease (Human immunodeficiency virus type 1 group M subtype B, UniProt P04585)
Construct: HIV protease was expressed in E. coli and partially purified from soluble extracts; made in house; host or cells: E. coli
Assay: In vitro inhibition of HIV protease (spectrophotometric assay of N-terminal proline from cleavage of substrate S¹ or S²)
Type: biochemical
Conditions: substrate S¹ (succinyl-Ser-Leu-Asn-Tyr-Pro-Ile isobutylamide), 1.25 mM, citrate buffer pH 5.5, 37°C; read-out: IC₅₀ Inhibition of HIV protease S¹
pIC50: −log10 of the molar value.

>  <compound>
CC[C@H](C)[C@H](NC(=O)[C@@H](C[C@H](O)[C@H](CC1CCCCC1)NC(=O)OC(C)(C)C)C(C)C)C(=O)NCCc1ccccc1 [Compound A]

>  <pIC50>
7.92

$$$$
>  <compound>
CC[C@H](C)[C@H](NC(=O)[C@@H](C[C@H](O)[C@H](Cc1ccccc1)NC(=O)OC(C)(C)C)C(C)C)C(=O)NCCc1ccccc1 [Compound G]

>  <pIC50>
7.49

$$$$
>  <compound>
CC[C@H](C)[C@H](NC(=O)[C@@H](C[C@H](O)[C@H](CC1CCCCC1)NC(=O)[C@H](CC(N)=O)NC(=O)OCc1ccccc1)C(C)C)C(=O)NCCc1ccccc1 [Compound I]

>  <pIC50>
7.10

$$$$
>  <compound>
CC[C@H](C)[C@H](NC(=O)[C@@H](C[C@H](O)[C@H](CC1CCCCC1)NC(=O)OCc1ccccc1)C(C)C)C(=O)NCCc1ccccc1 [Compound H]

>  <pIC50>
7.66

$$$$
>  <compound>
CC[C@H](C)[C@H](NC(=O)[C@@H](C[C@H](O)[C@H](CC1CCCCC1)NC(=O)OC(C)(C)C)C(C)C)C(=O)NCc1ccccc1 [Compound C]

>  <pIC50>
7.82

$$$$
>  <compound>
CC[C@H](C)[C@H](NC(=O)[C@@H](C[C@H](O)[C@H](CC1CCCCC1)NC(=O)OC(C)(C)C)C(C)C)C(=O)N[C@@H](Cc1ccccc1)C(=O)OC [Compound B]

>  <pIC50>
7.70

$$$$

###

Molecular target: HIV protease (Human immunodeficiency virus type 1 group M subtype B, UniProt P04585)
Construct: HIV protease was expressed in E. coli and partially purified from soluble extracts; made in house; host or cells: E. coli
Assay: In vitro inhibition of HIV protease (spectrophotometric assay of N-terminal proline from cleavage of substrate S¹ or S²)
Assay type: biochemical
Conditions: substrate S², 0.68 mM, citrate buffer pH 5.5, 37°C; 2nd run, lower protease concentration than in the 1st run; read-out: IC₅₀ Inhibition of HIV protease S² 2nd run

>  <compound structure>
CC[C@H](C)[C@H](NC(=O)[C@@H](C[C@H](O)[C@H](CC1CCCCC1)NC(=O)OCc1ccccc1)C(C)C)C(=O)NCCc1ccccc1

>  <experimental system>
HIV protease (Human immunodeficiency virus type 1 group M subtype B, UniProt P04585)

>  <IC50>
0.91 nM

$$$$
>  <compound structure>
CC[C@H](C)[C@H](NC(=O)[C@@H](C[C@H](O)[C@H](CC1CCCCC1)NC(=O)OC(C)(C)C)C(C)C)C(=O)NCCN1CCOCC1

>  <experimental system>
HIV protease (Human immunodeficiency virus type 1 group M subtype B, UniProt P04585)

>  <IC50>
1.9 nM

$$$$
>  <compound structure>
CC[C@H](C)[C@H](NC(=O)[C@@H](C[C@H](O)[C@H](CC1CCCCC1)NC(=O)[C@H](CC(N)=O)NC(=O)OCc1ccccc1)C(C)C)C(=O)NCCc1ccccc1

>  <experimental system>
HIV protease (Human immunodeficiency virus type 1 group M subtype B, UniProt P04585)

>  <IC50>
0.39 nM

$$$$
